Data origin, for the record: the supplement of paper PMC8149375

# Test system: SN12C
# Protocol text: AUC of dose-response viability curve, drug alone (arbitrary (AUC of normalised viability)); higher = less growth inhibition
# Measurement conditions: treatment: drug alone; 5 days
Measurement type: AUC of dose-response viability curve
Just the number, please.

Problem: For `Cc1[nH]c(/C=C2/C(=O)Nc3ccc(S(=O)(=O)N(C)c4cccc(Cl)c4)cc32)c(C)c1C(=O)N1CCN(C)CC1` , what is its reported AUC of dose-response viability curve?
Solution: 3.01

Problem: For CC[C@H](Nc1ncnc2[nH]cnc12)c1nc2cccc(F)c2c(=O)n1-c1ccccc1 [CAL-101 (GS-1101)] , what is its reported AUC of dose-response viability curve?
Solution: 3.2

Problem: For C=CC(=O)Nc1cccc(Oc2nc(Nc3ccc(N4CCN(C)CC4)cc3)ncc2Cl)c1 [WZ3146] , what is its reported AUC of dose-response viability curve?
Solution: 2.85

Problem: For `Cc1cnc(Nc2ccc(OCCN3CCCC3)cc2)nc1Nc1cccc(S(=O)(=O)NC(C)(C)C)c1` , what is its reported AUC of dose-response viability curve?
Solution: 2.71

Problem: For CS(=O)(=O)O.Cc1ccc(NC(=O)c2ccc(CN3CCN(C)CC3)cc2)cc1Nc1nccc(-c2cccnc2)n1 [Imatinib Mesylate] , what is its reported AUC of dose-response viability curve?
Solution: 3.55

Problem: For CN1C(=O)C(Cc2c[nH]c3ccccc23)NC1=S (centres undefined) [Necrostatin-1] , what is its reported AUC of dose-response viability curve?
Solution: 3.29

Problem: For `CCc1cccc(CC)c1NC(=O)N1Cc2[nH]nc(NC(=O)c3ccc(N4CCN(C)CC4)cc3)c2C1` , what is its reported AUC of dose-response viability curve?
Solution: 2.76

Problem: For `O=C1NC(=O)/C(=C/c2ccc3nccnc3c2)S1` , what is its reported AUC of dose-response viability curve?
Solution: 3.19

Problem: For `Cn1cc(C2=C(c3cn(C4CCN(Cc5ccccn5)CC4)c4ccccc34)C(=O)NC2=O)c2ccccc21` , what is its reported AUC of dose-response viability curve?
Solution: 3.33
